system: WRN C727 (Homo sapiens, UniProt Q14191)
Construct: endogenous in cells; host or cells: OCI-AML2
Sequence (Q14191 whole entry): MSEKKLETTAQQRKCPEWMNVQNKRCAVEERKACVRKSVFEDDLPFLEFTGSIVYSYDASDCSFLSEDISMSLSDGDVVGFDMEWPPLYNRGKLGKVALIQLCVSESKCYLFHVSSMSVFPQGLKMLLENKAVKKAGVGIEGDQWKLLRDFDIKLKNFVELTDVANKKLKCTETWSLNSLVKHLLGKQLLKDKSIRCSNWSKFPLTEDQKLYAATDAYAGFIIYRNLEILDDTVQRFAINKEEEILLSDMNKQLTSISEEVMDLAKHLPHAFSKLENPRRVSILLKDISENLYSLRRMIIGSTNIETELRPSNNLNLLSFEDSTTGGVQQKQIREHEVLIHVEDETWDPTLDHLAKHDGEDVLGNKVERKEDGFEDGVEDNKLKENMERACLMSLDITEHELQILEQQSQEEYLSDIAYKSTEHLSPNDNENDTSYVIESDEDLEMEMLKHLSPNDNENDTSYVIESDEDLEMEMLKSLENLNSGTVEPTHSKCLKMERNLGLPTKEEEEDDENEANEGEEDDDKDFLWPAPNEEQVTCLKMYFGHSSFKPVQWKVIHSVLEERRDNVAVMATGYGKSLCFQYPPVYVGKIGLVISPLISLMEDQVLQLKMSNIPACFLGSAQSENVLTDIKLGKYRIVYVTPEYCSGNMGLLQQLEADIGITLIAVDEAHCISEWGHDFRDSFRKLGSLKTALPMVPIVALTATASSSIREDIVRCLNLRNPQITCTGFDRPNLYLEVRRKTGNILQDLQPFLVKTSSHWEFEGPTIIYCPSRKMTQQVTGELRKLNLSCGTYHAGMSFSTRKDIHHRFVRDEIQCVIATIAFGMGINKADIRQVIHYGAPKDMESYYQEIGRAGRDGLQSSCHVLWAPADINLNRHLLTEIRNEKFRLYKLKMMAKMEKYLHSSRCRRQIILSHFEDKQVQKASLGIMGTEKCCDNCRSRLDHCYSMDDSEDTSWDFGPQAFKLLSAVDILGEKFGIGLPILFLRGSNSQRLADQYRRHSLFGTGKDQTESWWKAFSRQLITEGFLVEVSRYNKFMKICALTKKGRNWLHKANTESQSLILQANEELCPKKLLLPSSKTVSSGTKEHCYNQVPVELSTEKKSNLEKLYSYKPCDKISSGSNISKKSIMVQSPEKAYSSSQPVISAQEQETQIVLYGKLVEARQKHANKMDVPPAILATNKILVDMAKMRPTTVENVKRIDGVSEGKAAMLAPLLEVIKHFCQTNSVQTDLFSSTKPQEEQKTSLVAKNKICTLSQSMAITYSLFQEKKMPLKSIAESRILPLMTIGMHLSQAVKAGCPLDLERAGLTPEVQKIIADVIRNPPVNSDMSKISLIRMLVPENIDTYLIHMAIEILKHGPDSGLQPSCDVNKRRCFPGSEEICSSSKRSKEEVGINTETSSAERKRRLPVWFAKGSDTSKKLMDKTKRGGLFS
protocol_details: Target engagement, in vitro (lysate), OCI-AML2
Type: binding
measurement_parameters: read-out: OCI-AML2 WRN C727 TE50 in vitro (lysate)
property_label: IC50 (µM)
Use µM as the unit, but write only the number.

// below: answered compounds
IC50 measured on COCC(/C=C/S(C)(=O)=O)NC(=O)c1cnc(C(F)(F)C2CC2)nc1Oc1ccccc1 (stereo in doubt) = 0.116

IC50 measured on `CC(C)(C)c1ncc(C(=O)N2CC(=CS(=O)(=O)C3CCOCC3)C2)c(Oc2ccccc2)n1` = 4.09

Next compound, please.
IC50 measured on CS(=O)(=O)/C=C\C1CN(C(=O)c2cnc(C3CC3)nc2Oc2ccccc2)C1 (single isomer, unassigned) = 8.83

----------
system: hWRN(519-1227)_C-H3CV-GFP-10His (Homo sapiens)
protocol_details: Helicase Assay for WRN Inhibition (ATP-dependent, fluorescence based)
measurement_parameters: WRN Helicase IC50, 30 min preincubation with ATP, 30 min reaction
Binarize IC50 at 2 µM; below is satisfied, at or above is not satisfied.

Strictly below 2 µM in IC50? CS(=O)(=O)/C=C/[C@@H](NC(=O)c1cnc([C@H]2C[C@H](C)C2)nc1Oc1ccccc1)C1CC1 (single isomer, unassigned) [Example 49]
satisfied

Strictly below 2 µM in IC50? CS(=O)(=O)/C=C/[C@H](CC1CC1)NC(=O)c1cnc(C2CC2)nc1Oc1ccccc1 [Example 28]
satisfied

Strictly below 2 µM in IC50? C[C@@H](/C=C/S(C)(=O)=O)NC(=O)c1cnc(N2CCC[C@@H]2C)nc1Oc1ccccc1 [Example 175]
not satisfied

Strictly below 2 µM in IC50? C[C@@H](/C=C/S(C)(=O)=O)NC(=O)c1cnc(C2CCCC2)nc1Oc1cccc2ccccc12 [Example 139]
not satisfied

Strictly below 2 µM in IC50? C[C@@H](C#CC(=O)N(C)C)NC(=O)c1cnc(C(C)(F)F)nc1Oc1ccccc1 [Example 263]
not satisfied

Strictly below 2 µM in IC50? C=C(C#N)CNC(=O)c1cnc(C2CCCC2)nc1Oc1ccccc1 [Example 268]
satisfied

Strictly below 2 µM in IC50? C[C@@H](/C=C/S(C)(=O)=O)NC(=O)c1cnc(C2CCCC2)nc1Oc1cccc(N)c1 [Example 138]
not satisfied

----------
system: hWRN(519-1227)_C-H3CV-GFP-10His (Homo sapiens)
protocol_details: Helicase Assay for WRN Inhibition (ATP-dependent, fluorescence based)
measurement_parameters: WRN Helicase IC50, 30 min preincubation with ATP, 30 min reaction
property_label: IC50 (nM)
Use nM as the unit, but write only the number.

IC50 measured on CN(C)c1ncc(C(=O)N[C@H](/C=C/S(C)(=O)=O)C2CC2)c(Oc2ccccc2)n1 [Example 177] = 370

IC50 measured on C[C@@H](/C=C/S(C)(=O)=O)NC(=O)c1cnc(C2CCCC2)nc1Oc1ccccc1O [Example 137] = 3400

IC50 measured on COCC(/C=C/S(C)(=O)=O)NC(=O)c1cnc(C(F)(F)C2CC2)nc1Oc1ccccc1 (stereo in doubt) [Example 226] = 92.9

Next compound, please.
IC50 measured on CC(F)(F)c1ncc(C(=O)N[C@H](/C=C/S(C)(=O)=O)C2CC2)c(O[C@@H]2C[C@@H]3C[C@@H]3C2)n1 [Example 158] = 1500

----------
system: hWRN(519-1227)_C-H3CV-GFP-10His (Homo sapiens, UniProt Q14191)
Sequence (Q14191 519-1227): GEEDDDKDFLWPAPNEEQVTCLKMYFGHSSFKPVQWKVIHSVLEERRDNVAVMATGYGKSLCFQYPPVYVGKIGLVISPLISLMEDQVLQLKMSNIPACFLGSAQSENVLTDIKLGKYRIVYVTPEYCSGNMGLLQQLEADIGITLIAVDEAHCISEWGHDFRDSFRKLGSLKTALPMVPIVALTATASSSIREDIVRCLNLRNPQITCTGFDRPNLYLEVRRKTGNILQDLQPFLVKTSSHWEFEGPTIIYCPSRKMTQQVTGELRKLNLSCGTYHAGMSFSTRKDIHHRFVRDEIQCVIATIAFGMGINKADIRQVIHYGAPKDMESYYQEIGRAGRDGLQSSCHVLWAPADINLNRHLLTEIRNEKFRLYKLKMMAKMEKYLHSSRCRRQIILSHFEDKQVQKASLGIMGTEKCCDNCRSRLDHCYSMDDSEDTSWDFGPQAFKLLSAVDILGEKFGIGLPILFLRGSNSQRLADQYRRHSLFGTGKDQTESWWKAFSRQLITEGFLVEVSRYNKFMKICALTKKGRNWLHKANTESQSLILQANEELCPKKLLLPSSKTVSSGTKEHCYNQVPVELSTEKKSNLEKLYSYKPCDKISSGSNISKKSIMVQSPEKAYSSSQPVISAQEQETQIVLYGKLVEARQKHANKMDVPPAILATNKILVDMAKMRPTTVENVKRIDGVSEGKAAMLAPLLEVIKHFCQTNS
protocol_details: Helicase Assay for WRN Inhibition (ATP-dependent, fluorescence based)
measurement_parameters: WRN Helicase IC50, 30 min preincubation with ATP, 30 min reaction
In this section we review reported pIC50 values for a set of molecules.
In textbook form, pIC50 equals minus log to base ten of the concentration in mol/L.

// below: answered molecules
pIC50 measured on `C[C@@H]1CC[C@H](C)N1c1ncc(C(=O)N[C@@H](C)/C=C/S(C)(=O)=O)c(Oc2ccccc2)n1` = 5.93

pIC50 measured on `Cc1c(C2CC2)ncc(C(=O)N[C@@H](C)/C=C/S(C)(=O)=O)c1Oc1ccccc1` = 4.02

pIC50 measured on `CS(=O)(=O)/C=C/[C@@H](NC(=O)c1cnc(C(F)(F)F)nc1Oc1ccccc1)C1CC1` = 6.26

---
pIC50 measured on CS(=O)(=O)/C=C/[C@H](Cc1ccccc1)NC(=O)c1cnc(C2CC2)nc1Oc1ccccc1 (single isomer, unassigned) = 5.77

pIC50 measured on `C[C@@H]1CCCN1c1ncc(C(=O)N[C@@H](C)/C=C/S(C)(=O)=O)c(Oc2ccccc2)n1` = 5.80

pIC50 measured on `C[C@@H](/C=C/S(C)(=O)=O)NC(=O)c1cnc(C2=CCCOC2)nc1Oc1ccccc1` = 4.29

pIC50 measured on CS(=O)(=O)/C=C/[C@@H](NC(=O)c1cnc([C@H]2C[C@@H](C)C2)nc1Oc1ccccc1)C1CC1 (single isomer, unassigned) = 7.21

pIC50 measured on C[C@@H](/C=C/S(C)(=O)=O)NC(=O)c1cnc(C2CCCOC2)nc1Oc1ccccc1 (some centres unmarked) = 4.51

----------
system: hWRN(519-1227)_C-H3CV-GFP-10His (Homo sapiens, UniProt Q14191)
protocol_details: Helicase Assay for WRN Inhibition (ATP-dependent, fluorescence based)
measurement_parameters: WRN Helicase IC50, 30 min preincubation with ATP, 30 min reaction
property_label: pIC50
In textbook form, pIC50 equals minus log to base ten of the concentration in mol/L.

pIC50 measured on `CCc1ncc(C(=O)NC/C=C/S(C)(=O)=O)c(Oc2ccccc2)n1` = 4.85

pIC50 measured on `CN(C/C=C/S(C)(=O)=O)C(=O)c1cnc(C2CCCC2)nc1Oc1ccccc1` = 4.28

pIC50 measured on `COC[C@H](/C=C/S(C)(=O)=O)NC(=O)c1cnc(C(C)(C)C)nc1Oc1ccccc1` = 5.07

pIC50 measured on `CS(=O)(=O)/C=C/CNC(=O)c1cnc(C2CCCCC2)nc1Oc1ccccc1` = 5.31

---
pIC50 measured on `Cc1ccc(Oc2nc(C3CCCC3)ncc2C(=O)N[C@@H](C)/C=C/S(C)(=O)=O)cc1C` = 3.74

pIC50 measured on `CS(=O)(=O)/C=C/[C@@H](NC(=O)c1cnc(C2CCCC2)nc1Oc1ccccc1)C1CC1` = 7.12

pIC50 measured on `C[C@@H](/C=C/S(C)(=O)=O)NC(=O)c1cnc(C2CCCC2)nc1OC1CCCCCC1` = 5.23

pIC50 measured on `C[C@@H](/C=C/S(C)(=O)=O)NC(=O)c1cnc(N2CC3(CCC3)C2)nc1Oc1ccccc1` = 3.86

pIC50 measured on `CS(=O)(=O)/C=C/CNC(=O)c1cnc(C2CCCC2)nc1Oc1ccc(Cl)cc1` = 5.31

----------
system: hWRN(519-1227)_C-H3CV-GFP-10His (Homo sapiens)
protocol_details: Helicase Assay for WRN Inhibition (ATP-dependent, fluorescence based)
measurement_parameters: WRN Helicase IC50, 30 min preincubation with ATP, 30 min reaction
In this section we review reported IC50 values for a set of compounds.
In your response, put the unit directly after the numeric value.

IC50 measured on CS(=O)(=O)/C=C/CNC(=O)c1cnc(C2CCC2)nc1Oc1ccccc1 [Example 43] = 1500 nM

---
IC50 measured on C[C@@H](/C=C/S(C)(=O)=O)NC(=O)c1cnc(-c2ccccc2)nc1Oc1ccccc1 [Example 80] = 148000 nM

IC50 measured on COC[C@@H](/C=C/S(C)(=O)=O)NC(=O)c1cnc(C2CCCC2)nc1Oc1ccccc1 [Example 10] = 130 nM

IC50 measured on C[C@@H](/C=C/S(C)(=O)=O)NC(=O)c1cnc(CC2CC2)nc1Oc1ccccc1 [Example 35] = 1010 nM

IC50 measured on CS(=O)(=O)/C=C/[C@@H](NC(=O)c1cnc(C2(C(F)(F)F)CC2)nc1Oc1ccccc1)C1CC1 [Example 102] = 130 nM

----------
In this section we review reported GI50 values for a set of compounds.
Test system: HCT 116 cells
protocol_details: Cell growth assay (CellTiter-Glo 2.0), HCT 116 MSI-H cell line
measurement_parameters: Homo sapiens, HCT-116, 120 h, read-out: Cell Growth Inhibition GI50 HCT-116
Use nM as the unit, but write only the number.

GI50 measured on C[C@@H](/C=C/S(C)(=O)=O)NC(=O)c1cnc(C(C)(C)C)cc1Oc1ccccc1 [Example 253] = 240

GI50 measured on CS(=O)(=O)/C=C/[C@H](CC1CC1)NC(=O)c1cnc(C2CC2)nc1Oc1ccccc1 [Example 28] = 606

GI50 measured on CS(=O)(=O)/C=C/CNC(=O)c1cnc(C2CCC2)nc1Oc1ccccc1 [Example 43] = 670

GI50 measured on C=C(CNC(=O)c1cnc(C2CC2)nc1Oc1ccccc1)S(C)(=O)=O [Example 287] = 3500

GI50 measured on C[C@@H](/C=C/S(C)(=O)=O)NC(=O)c1cnc(C2CCCC2)nc1OC1CCCCCC1 [Example 128] = 2500

---
GI50 measured on CC[C@@H](/C=C/S(C)(=O)=O)NC(=O)c1cnc(C2CCCC2)nc1Oc1ccccc1 [Example 6] = 214

GI50 measured on C[C@@H]1CC[C@H](C)N1c1ncc(C(=O)N[C@@H](C)/C=C/S(C)(=O)=O)c(Oc2ccccc2)n1 [Example 171] = 434

GI50 measured on C[C@@H](/C=C/S(C)(=O)=O)NC(=O)c1cnc(N2CCCC2)nc1Oc1ccccc1 [Example 168] = 1600

Provenance of the data: patent US20250188040A1
